Where do the numbers come from? From BindingDB's records for doi:10.1007/s10822-022-00478-x.

- tested system: cAMP and cAMP-inhibited cGMP 3',5'-cyclic phosphodiesterase 10A (Homo sapiens, UniProt Q9Y233)
pIC50: −log10 of the molar value.
observable: pIC50

Worked examples follow.
compound	pIC50
Cc1c(Br)cn2nc(/C=C/c3nc(N4CCCC4)nn3C)nc2c1C [Roche-Dataset for PDE10A, Compound 406]	7.92
O=C(Nc1ccc(N2CCOCC2=O)cc1)c1nc(C2CC2)ccc1Nc1cncnc1 [Roche-Dataset for PDE10A, Compound 686]	7.37
CN(C(=O)c1cnn(C)c1C(=O)Nc1ccn2nc(N3CCOCC3)nc2c1)C1CC1 [Roche-Dataset for PDE10A, Compound 207]	8.96
COc1ccc2c(=O)n(C)c3c(C)nc(-c4cccc(Cl)c4)n3c2c1 [Roche-Dataset for PDE10A, Compound 981]	7.15
COc1ccc(Cn2nc(N3CCCC3)nc2CCc2nc3c(Cl)cc(Cl)c(C)n3n2)cc1 [Roche-Dataset for PDE10A, Compound 97]	9.19

[a] O=C(NCCCc1noc(-c2ccccc2)n1)c1nc(C2CC2)cnc1Nc1cncnc1 [Roche-Dataset for PDE10A, Compound 181]
[b] Cc1cc(C)n2nc(/C=C/c3nc(N4CCCC4)nn3C3CC3)nc2n1 [Roche-Dataset for PDE10A, Compound 350]
Query: # return whichever of a and b has the smaller pIC50 State the label of the item chosen.
Result: a

* * *

- tested system: cAMP and cAMP-inhibited cGMP 3',5'-cyclic phosphodiesterase 10A (Homo sapiens, UniProt Q9Y233)
pIC50: −log10 of the molar value.
observable: pIC50

Use the examples below as a reference point.
compound	observable	obs value
O=C(NCc1ccc(C(F)(F)F)cc1)c1nc(C2CC2)cnc1Nc1cncnc1 [Roche-Dataset for PDE10A, Compound 668]	pIC50	7.00
CN(C)CCn1nccc1NC(=O)c1nc(C2CC2)cnc1Nc1cncnc1 [Roche-Dataset for PDE10A, Compound 857]	pIC50	6.50
O=C(NCCN1CCc2ccccc2C1=O)c1nc(C2CC2)cnc1Nc1cncnc1 [Roche-Dataset for PDE10A, Compound 451]	pIC50	6.24
CCOC(=O)Cc1csc(NC(=O)c2nc(C3CC3)cnc2Nc2cncnc2)n1 [Roche-Dataset for PDE10A, Compound 914]	pIC50	8.30
O=C(NCc1cn(-c2ccccc2)cn1)c1nc(C2CC2)cnc1Nc1cncnc1 [Roche-Dataset for PDE10A, Compound 682]	pIC50	7.28

[a] Cc1cnccc1NC(=O)c1ccc2cc(-c3ccccc3)nn2c1 [Roche-Dataset for PDE10A, Compound 448]
[b] Cn1cc(-c2ccccc2)nc1CCc1nc2ccc(Cl)cc2c(=O)[nH]1 [Roche-Dataset for PDE10A, Compound 93]
Query: I would appreciate it if you could say which entry, a or b , has the lower pIC50 value. Record your answer as the label of the chosen record.
Result: a
(a: 6.25, b: 8.04)

[A] CC(C)Oc1cc(C(=O)Nc2ccn3nc(-c4ccccc4)nc3c2)cc(Cl)n1 [Roche-Dataset for PDE10A, Compound 116]
[B] CCN(C)C(=O)c1cnn(C)c1C(=O)N[C@@H]1CCn2cc(-c3ccccc3)nc2C1 [Roche-Dataset for PDE10A, Compound 242]
[C] CCn1ncc(NC(=O)c2c(C(=O)N3CCC3)cnn2C)c1C(=O)NCC(C)C [Roche-Dataset for PDE10A, Compound 1057]
[D] CN(C)C(=O)Cn1ccc(NC(=O)c2nc(C3CC3)cnc2Nc2cncnc2)n1 [Roche-Dataset for PDE10A, Compound 882]
[E] O=C(Nc1cccnn1)c1nc(C2CC2)cnc1Nc1cncnc1 [Roche-Dataset for PDE10A, Compound 1105]
Query: Sort the compounds on pIC50; start with the lowest figure. Sort the labels as requested; that list is your answer.
Result: C, E, A, D, B
(C: 6.23, E: 6.57, A: 7.19, D: 7.49, B: 7.82)
